- Assayed System: hERG (Homo sapiens (Human), UniProt Q12809)
- Sequence (Q12809 whole entry): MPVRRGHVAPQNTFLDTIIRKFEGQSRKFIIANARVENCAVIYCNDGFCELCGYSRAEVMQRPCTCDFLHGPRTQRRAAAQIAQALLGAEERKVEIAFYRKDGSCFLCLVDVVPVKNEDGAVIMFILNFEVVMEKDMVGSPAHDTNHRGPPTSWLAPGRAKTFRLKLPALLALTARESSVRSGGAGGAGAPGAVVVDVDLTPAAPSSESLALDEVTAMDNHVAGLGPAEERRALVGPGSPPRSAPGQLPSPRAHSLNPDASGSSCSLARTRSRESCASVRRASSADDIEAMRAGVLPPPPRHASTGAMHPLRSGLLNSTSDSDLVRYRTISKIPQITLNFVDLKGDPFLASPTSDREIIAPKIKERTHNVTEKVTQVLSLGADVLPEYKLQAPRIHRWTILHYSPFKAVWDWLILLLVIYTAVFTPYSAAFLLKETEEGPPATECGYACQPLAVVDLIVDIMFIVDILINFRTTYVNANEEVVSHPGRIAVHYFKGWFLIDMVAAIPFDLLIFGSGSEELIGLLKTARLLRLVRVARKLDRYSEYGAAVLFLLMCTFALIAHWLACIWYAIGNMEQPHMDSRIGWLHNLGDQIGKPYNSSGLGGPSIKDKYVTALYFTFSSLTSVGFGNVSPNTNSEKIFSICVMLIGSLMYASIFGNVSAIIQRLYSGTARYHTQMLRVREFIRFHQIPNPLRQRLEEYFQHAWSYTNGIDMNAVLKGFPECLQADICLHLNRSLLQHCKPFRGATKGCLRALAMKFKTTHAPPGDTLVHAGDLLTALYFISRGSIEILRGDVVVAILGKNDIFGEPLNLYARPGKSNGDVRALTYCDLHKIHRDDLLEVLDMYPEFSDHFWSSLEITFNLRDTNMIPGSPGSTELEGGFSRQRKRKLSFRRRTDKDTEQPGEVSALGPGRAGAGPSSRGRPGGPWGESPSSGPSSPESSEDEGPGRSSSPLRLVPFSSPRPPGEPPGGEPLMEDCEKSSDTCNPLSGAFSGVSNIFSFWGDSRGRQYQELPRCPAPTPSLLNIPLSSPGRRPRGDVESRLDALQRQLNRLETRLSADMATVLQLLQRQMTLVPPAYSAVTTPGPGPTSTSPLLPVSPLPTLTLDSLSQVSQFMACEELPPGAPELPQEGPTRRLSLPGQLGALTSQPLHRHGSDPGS
- Experimental Details: hERG radioligand ([3H]Dofetilide) displacement binding assay (commercial)
- Reported Conditions: Table 2; [3H]Dofetilide displacement, HEK-293
pIC50: −log10 of the molar value.
Readout Type: pIC50

For CN1CCc2oc3ccccc3c2CC1 [drawing 162] , what is its reported pIC50?
< 5.00

----------
- Assayed System: hERG (Homo sapiens (Human))
- Experimental Details: hERG radioligand ([3H]Dofetilide) displacement binding assay (commercial)
- Reported Conditions: Table 4; [3H]Dofetilide displacement
Readout Type: IC50

For Oc1ccc2oc3c(c2c1)CCN1CCCC3C1 (stereo not shown) [drawing 171] , what is its reported IC50?
~60 µM

----------
Consider the following compounds and their measured EC50 readings.
- Assayed System: rat KOR (rKOR) (Rattus norvegicus (Rat))
- Experimental Details: G-protein BRET functional opioid assay, KOR
Respond with the bare value in nM.

Past entries and their recorded results:
CC1Cc2oc3ccc(O)cc3c2CCN1C (stereo not drawn) : 79
CC1Cc2oc3ccc(O)cc3c2CCN1 (stereo not drawn) [drawing 173] : 130

For Oc1ccc2oc3c(c2c1)CCN1CCCC3C1 (stereo not drawn) [drawing 175] , what is its reported EC50?
140

----------
- Assayed System: 5-HT2A (Homo sapiens (Human))
- Experimental Details: 5-HT2A agonist (IP1) assay, HEK-293 cells (commercial)
- Format: cell-based
- Reported Conditions: HEK293; Table 2; at 10 μM; read-out: % of control agonist maximal response (5-HT2A)
Readout Type: Emax at 10 µM (%)
Respond with the bare value in %.

Past entries and their recorded results:
CN1CCCc2oc3ccccc3c2C1 [drawing 164] : 4
c1ccc2c3c(oc2c1)CCCNC3 [drawing 163] : 26
c1ccc2c3c(oc2c1)CCNCC3 [drawing 161] : 77

For CN1CCc2oc3ccccc3c2CC1 [drawing 162] , what is its reported Emax at 10 µM?
26
